The reported numbers originate from patent US20190358181A1.

- experiment: Suramin plasma pharmacokinetics by LC-MS/MS, two compartment population PK model, pediatric patients
- Assay type: in vivo, human
- recorded_conditions: human, plasma, iv, 460 mg, ID 007, 460 mg (529 mg/m^2) IV; read-out: 2-Day Plasma Conc

| molecule | unit_name | concentration at 2 days |
| --- | --- | --- |
| Cc1ccc(C(=O)Nc2ccc(S(=O)(=O)O)c3cc(S(=O)(=O)O)cc(S(=O)(=O)O)c23)cc1NC(=O)c1cccc(NC(=O)Nc2cccc(C(=O)Nc3cc(C(=O)Nc4ccc(S(=O)(=O)O)c5cc(S(=O)(=O)O)cc(S(=O)(=O)O)c45)ccc3C)c2)c1 [Suramin, suramin] | µM | 11.9 |

###

- experiment: Suramin plasma pharmacokinetics by LC-MS/MS, two compartment population PK model, pediatric patients
- Type: in vivo, human
- recorded_conditions: human, plasma; 20 mg/kg IV; read-out: steady-state volume of distribution
- Experimental: For the test dose, 50 mg of suramin hexasodium (Bayer Pharmaceuticals, Inc.) in 5 mL of saline (experimental arm, 5 patients), or 5 mL of saline only (control arm, 5 patients) were given by slow intravenous (IV) push over 3 minutes, followed by a 10 mL flush of saline. […] Suramin pharmacokinetics was assessed by serum isolation at the 4 time points immediately before and after the infusion. […]

| structure | unit_name | Vd |
| --- | --- | --- |
| Cc1ccc(C(=O)Nc2ccc(S(=O)(=O)O)c3cc(S(=O)(=O)O)cc(S(=O)(=O)O)c23)cc1NC(=O)c1cccc(NC(=O)Nc2cccc(C(=O)Nc3cc(C(=O)Nc4ccc(S(=O)(=O)O)c5cc(S(=O)(=O)O)cc(S(=O)(=O)O)c45)ccc3C)c2)c1 | L/kg | 0.83 |

###

- experiment: Suramin plasma pharmacokinetics by LC-MS/MS, two compartment population PK model, pediatric patients
- Assay type: in vivo, human
- recorded_conditions: human, plasma; Mean of 5 subjects, 20 mg/kg (558 mg/m^2) IV; read-out: 2-Day Plasma Conc

| structure | concentration at 2 days / µM |
| --- | --- |
| Cc1ccc(C(=O)Nc2ccc(S(=O)(=O)O)c3cc(S(=O)(=O)O)cc(S(=O)(=O)O)c23)cc1NC(=O)c1cccc(NC(=O)Nc2cccc(C(=O)Nc3cc(C(=O)Nc4ccc(S(=O)(=O)O)c5cc(S(=O)(=O)O)cc(S(=O)(=O)O)c45)ccc3C)c2)c1 | 12 |

###

- experiment: Suramin plasma pharmacokinetics by LC-MS/MS, two compartment population PK model, pediatric patients
- Assay type: in vivo, human
- recorded_conditions: human, plasma, iv, 20 mg/kg, 20 mg/kg IV; read-out: alpha (distribution) phase half-life (converted)
endpoint: half-life

| compound | observed |
| --- | --- |
| Cc1ccc(C(=O)Nc2ccc(S(=O)(=O)O)c3cc(S(=O)(=O)O)cc(S(=O)(=O)O)c23)cc1NC(=O)c1cccc(NC(=O)Nc2cccc(C(=O)Nc3cc(C(=O)Nc4ccc(S(=O)(=O)O)c5cc(S(=O)(=O)O)cc(S(=O)(=O)O)c45)ccc3C)c2)c1 [Suramin, suramin] | 7.4 h |

###

- experiment: Suramin plasma pharmacokinetics by LC-MS/MS, two compartment population PK model, pediatric patients
- Type: in vivo, human
- recorded_conditions: human, plasma, iv, 460 mg, ID 007, 460 mg (529 mg/m^2) IV; read-out: 45-Day Plasma Conc
endpoint: concentration at 45 days (nM)

| structure | endpoint | observed |
| --- | --- | --- |
| Cc1ccc(C(=O)Nc2ccc(S(=O)(=O)O)c3cc(S(=O)(=O)O)cc(S(=O)(=O)O)c23)cc1NC(=O)c1cccc(NC(=O)Nc2cccc(C(=O)Nc3cc(C(=O)Nc4ccc(S(=O)(=O)O)c5cc(S(=O)(=O)O)cc(S(=O)(=O)O)c45)ccc3C)c2)c1 | concentration at 45 days | 1670 |

###

- experiment: Suramin plasma pharmacokinetics by LC-MS/MS, two compartment population PK model, pediatric patients
- Format: in vivo, human
- recorded_conditions: human, plasma; Mean of 5 subjects, 20 mg/kg (558 mg/m^2) IV; read-out: 1-Hour Plasma Conc

| structure | unit_name | concentration at 1 h |
| --- | --- | --- |
| Cc1ccc(C(=O)Nc2ccc(S(=O)(=O)O)c3cc(S(=O)(=O)O)cc(S(=O)(=O)O)c23)cc1NC(=O)c1cccc(NC(=O)Nc2cccc(C(=O)Nc3cc(C(=O)Nc4ccc(S(=O)(=O)O)c5cc(S(=O)(=O)O)cc(S(=O)(=O)O)c45)ccc3C)c2)c1 | µM | 104 |

###

- experiment: Suramin plasma pharmacokinetics by LC-MS/MS, two compartment population PK model, pediatric patients
- Format: in vivo, human
- recorded_conditions: human, plasma, iv, 1000 mg, ID 014, 1000 mg (613 mg/m^2) IV; read-out: 2-Day Plasma Conc

| compound | concentration at 2 days |
| --- | --- |
| Cc1ccc(C(=O)Nc2ccc(S(=O)(=O)O)c3cc(S(=O)(=O)O)cc(S(=O)(=O)O)c23)cc1NC(=O)c1cccc(NC(=O)Nc2cccc(C(=O)Nc3cc(C(=O)Nc4ccc(S(=O)(=O)O)c5cc(S(=O)(=O)O)cc(S(=O)(=O)O)c45)ccc3C)c2)c1 [Suramin, suramin] | 10.6 µM |

###

- experiment: Suramin plasma pharmacokinetics by LC-MS/MS, two compartment population PK model, pediatric patients
- Assay type: in vivo, human
- recorded_conditions: human, plasma, iv, 460 mg, ID 012, 460 mg (529 mg/m^2) IV; read-out: 45-Day Plasma Conc
endpoint: concentration at 45 days

| compound | observed |
| --- | --- |
| Cc1ccc(C(=O)Nc2ccc(S(=O)(=O)O)c3cc(S(=O)(=O)O)cc(S(=O)(=O)O)c23)cc1NC(=O)c1cccc(NC(=O)Nc2cccc(C(=O)Nc3cc(C(=O)Nc4ccc(S(=O)(=O)O)c5cc(S(=O)(=O)O)cc(S(=O)(=O)O)c45)ccc3C)c2)c1 [Suramin, suramin] | 2280 nM |

###

- experiment: Suramin plasma pharmacokinetics by LC-MS/MS, two compartment population PK model, pediatric patients
- Format: in vivo, human
- recorded_conditions: human, plasma, iv, 500 mg, ID 005, 500 mg (526 mg/m^2) IV; read-out: Plasma Half-Life (converted)

| structure | half-life |
| --- | --- |
| Cc1ccc(C(=O)Nc2ccc(S(=O)(=O)O)c3cc(S(=O)(=O)O)cc(S(=O)(=O)O)c23)cc1NC(=O)c1cccc(NC(=O)Nc2cccc(C(=O)Nc3cc(C(=O)Nc4ccc(S(=O)(=O)O)c5cc(S(=O)(=O)O)cc(S(=O)(=O)O)c45)ccc3C)c2)c1 | 15 days |

###

- experiment: Suramin plasma pharmacokinetics by LC-MS/MS, two compartment population PK model, pediatric patients
- Assay type: in vivo, human
- recorded_conditions: human, plasma, iv, 1000 mg, ID 014, 1000 mg (613 mg/m^2) IV; read-out: 45-Day Plasma Conc
endpoint: concentration at 45 days (nM)

| compound | observed |
| --- | --- |
| Cc1ccc(C(=O)Nc2ccc(S(=O)(=O)O)c3cc(S(=O)(=O)O)cc(S(=O)(=O)O)c23)cc1NC(=O)c1cccc(NC(=O)Nc2cccc(C(=O)Nc3cc(C(=O)Nc4ccc(S(=O)(=O)O)c5cc(S(=O)(=O)O)cc(S(=O)(=O)O)c45)ccc3C)c2)c1 [Suramin, suramin] | 1040 |

###

- experiment: Suramin plasma pharmacokinetics by LC-MS/MS, two compartment population PK model, pediatric patients
- Assay type: in vivo, human
- recorded_conditions: human, plasma, iv, 20 mg/kg, Mean of 5 subjects, 20 mg/kg (558 mg/m^2) IV; read-out: 45-Day Plasma Conc
- Protocol: For the test dose, 50 mg of suramin hexasodium (Bayer Pharmaceuticals, Inc.) in 5 mL of saline (experimental arm, 5 patients), or 5 mL of saline only (control arm, 5 patients) were given by slow intravenous (IV) push over 3 minutes, followed by a 10 mL flush of saline. […] Suramin pharmacokinetics was assessed by serum isolation at the 4 time points immediately before and after the infusion. […]
endpoint: concentration at 45 days

| structure | observed |
| --- | --- |
| Cc1ccc(C(=O)Nc2ccc(S(=O)(=O)O)c3cc(S(=O)(=O)O)cc(S(=O)(=O)O)c23)cc1NC(=O)c1cccc(NC(=O)Nc2cccc(C(=O)Nc3cc(C(=O)Nc4ccc(S(=O)(=O)O)c5cc(S(=O)(=O)O)cc(S(=O)(=O)O)c45)ccc3C)c2)c1 | 1540 nM |

###

- experiment: Suramin plasma pharmacokinetics by LC-MS/MS, two compartment population PK model, pediatric patients
- Format: in vivo, human
- recorded_conditions: human, plasma, iv, 460 mg, ID 007, 460 mg (529 mg/m^2) IV; read-out: 1-Hour Plasma Conc

| structure | concentration at 1 h |
| --- | --- |
| Cc1ccc(C(=O)Nc2ccc(S(=O)(=O)O)c3cc(S(=O)(=O)O)cc(S(=O)(=O)O)c23)cc1NC(=O)c1cccc(NC(=O)Nc2cccc(C(=O)Nc3cc(C(=O)Nc4ccc(S(=O)(=O)O)c5cc(S(=O)(=O)O)cc(S(=O)(=O)O)c45)ccc3C)c2)c1 | 87.9 µM |
